Cited source for all entries: PubChem BioAssay (NCI)

- Tested on: KM12 colon
- test: NCI tumour cell line growth inhibition, 48 h
readout.name: TGI

Find TGI (KM12 colon) for the entry O=C(NCCCCNCCCNC(=O)OCc1ccccc1)OCc1ccccc1
98.5 µM

What would you report for COc1ccc(NC(=S)NNC(=O)c2cc(-c3ccccc3)nc3ccccc23)cc1 ?
> 100 µM

What would you report for CCCCCCc1cn([C@H]2C[C@H](O)[C@@H](CO)O2)c(=O)[nH]c1=O ?
> 100 µM

What would you report for CC1=NN(C(=O)c2cc(Cl)cc([N+](=O)[O-])c2)C(=O)C1N=Nc1ccccc1C(=O)O (centres undefined) ?
> 100 µM

What would you report for NC(=S)N/N=C\c1nccc2c(C(F)(F)C(F)(F)C(F)(F)F)cccc12 ?
8.05 µM

What would you report for c1ccc(CNc2ncnc3n[nH]nc23)cc1 ?
> 100 µM

What would you report for COC(=O)[C@@H]1O[C@]12[C@@H](CO[Si](C)(C)C(C)(C)C)O[C@@H](n1cc(C)c(=O)[nH]c1=O)[C@@H]2O[Si](C)(C)C(C)(C)C ?
> 100 µM

What would you report for CS(=O)(=O)Nc1cc(-c2ccc3ncnc(Nc4cccc(Cl)c4F)c3c2)cnc1Cl ?
16.5 µM

What would you report for COc1cc(CNC(=O)CCSc2nc3ccccc3c(=O)n2Cc2cc(OC)c(OC)c(OC)c2)cc(OC)c1OC ?
> 100 µM
